Source of measurements: PubChem BioAssay (NCI)

- Test system: CCRF-CEM leukemia
- Test name: NCI-60 one-dose screen, 48 h (100 = growth as untreated, 0 = no growth, -100 = all killed)
- Condition set: 10 µM
Compounds without any hit were thinned out: in the full panel of roughly 83,000, 20% have a hit.
Measured quantity: growth (%)
Numbers only, in %.

| Molecule | Measurement unit | growth |
| --- | --- | --- |
| CC1(C)CC[C@]2(C(=O)NCCCNCCCCNCCCN)CC[C@]3(C)C(=CC[C@@H]4[C@@]5(C)Cc6c([nH]c7ccccc67)C(C)(C)[C@@H]5CC[C@]43C)[C@H]2C1 | % | 64.4 |
| O=C(Nc1ccc(OCc2ccccc2)cc1)Nc1ccc(Cl)c(C(F)(F)F)c1 | % | -23.4 |
| CO[C@@H]1CSSC1Cn1nc(-c2ccc(Oc3ccccc3)cc2)c2c(N)ncnc21 (stereo partly drawn) | % | -8.26 |

Dear reader, for each entry below, please note its growth.
1. CC1=C2C(=C[C@@](C)(CO)[C@@H]2O)/C(=N\N)[C@](C)(O)C12CC2
2. COc1ccc(-c2ccc(/C=N/NC(=O)c3[nH]c4ccc(Br)cc4c3-c3ccccc3)s2)cc1

Found:
[18.8, 88]
